Hey, just so you know, these numbers are from ChEMBL document CHEMBL5543112.

assayOverview: Drug concentration in rat plasma at 3 mg/kg, po measured at 2 hrs by LC-MS/MS analysis
Type: ADME, organism-based
attributeMeasured: concentration at 2 h (ng/mL)
I only need the number, in ng/mL, no unit after it.

*Q* So what's the measured concentration at 2 h for this one? CC(=O)N1CCc2c(c(N3CCCc4ccc(C(F)F)cc43)nn2C2CCN(C(=O)CN3Cc4cc5c(cc4C3)C(=O)N(C3CCC(=O)NC3=O)C5=O)CC2)C1 (stereo unspecified)
*A* 0.4

* * *

assayOverview: Chemical stability of the compound assessed as parent compound remaining measured at 7 hrs
Assay type: physicochemical
particulars: read-out: Stability
attributeMeasured: remaining at 7 h

*Q* Return reported remaining at 7 h; argument: CC(=O)N1CCc2c(c(N3CCCc4cc(-c5cnn(C)c5)c(C(F)F)cc43)nn2[C@H]2CC[C@H](CN3Cc4cc5c(cc4C3)C(=O)N(C3CCC(=O)NC3=O)C5=O)CC2)C1 (stereo partly specified)
*A* < 10%

* * *

assayOverview: Drug distribution in Sprague-Dawley rat spleen at 3 mg/kg, po measured at 24 hrs by LC-MS/MS analysis
Type: ADME, organism-based
particulars: read-out: Ct
attributeMeasured: concentration at 24 h (ng/g)
Expressed in ng/g, but write only the number.

*Q* What concentration at 24 h value was documented for this molecule, CC(=O)N1CCc2c(c(N3CCCc4cc(-c5cnn(C)c5)c(C(F)F)cc43)nn2[C@H]2CC[C@H](CN3Cc4cc5c(cc4C3)C(=O)N(C3CCC(=O)NC3=O)C5=O)CC2)C1 (stereo partly specified) ?
*A* 8.1

* * *

assayOverview: Drug distribution in Sprague-Dawley rat kidney at 3 mg/kg, po measured at 1 hr by LC-MS/MS analysis
Assay type: ADME, organism-based
particulars: read-out: Ct
attributeMeasured: concentration at 1 h (ng/g)
Write it as a number; the unit ng/g goes unstated.

*Q* State the recorded concentration at 1 h for this entry: CC(=O)N1CCc2c(c(N3CCCc4cc(-c5cnn(C)c5)c(C(F)F)cc43)nn2[C@H]2CC[C@H](CN3Cc4cc5c(cc4C3)C(=O)N(C3CCC(=O)NC3=O)C5=O)CC2)C1 (stereo partly specified)
*A* 514

* * *

assayOverview: Plasma protein binding in monkey by LC-MS analysis
Type: ADME, cell-free, Macaca mulatta
particulars: rhesus monkey, read-out: PPB (converted)
attributeMeasured: fraction unbound
Write no unit; give the number alone.

*Q* Value lookup for fraction unbound; key = CC(=O)N1CCc2c(c(N3CCCc4cc(-c5cnn(C)c5)c(C(F)F)cc43)nn2[C@H]2CC[C@H](CN3Cc4cc5c(cc4C3)C(=O)N(C3CCC(=O)NC3=O)C5=O)CC2)C1 (stereo partly specified)
*A* 0.009

* * *

assayOverview: Drug distribution in SCID mouse plasma at 0.3 mg/kg, po measured at 1 hr by LC-MS/MS analysis
Assay type: ADME, organism-based
attributeMeasured: concentration at 1 h (ng/mL)
State just the number; it will be interpreted in ng/mL.

*Q* Form field: reported concentration at 1 h of CC(=O)N1CCc2c(c(N3CCCc4cc(-c5cnn(C)c5)c(C(F)F)cc43)nn2[C@H]2CC[C@H](CN3Cc4cc5c(cc4C3)C(=O)N(C3CCC(=O)NC3=O)C5=O)CC2)C1 (stereo partly specified)
*A* 35.2
